Data origin, for the record: patent US20070218064A1

- testTarget: T1, recombinant human IL-23 (hrIL-23), produced at Centocor (human, UniProt P29460 23-328)
- T1 sequence 1: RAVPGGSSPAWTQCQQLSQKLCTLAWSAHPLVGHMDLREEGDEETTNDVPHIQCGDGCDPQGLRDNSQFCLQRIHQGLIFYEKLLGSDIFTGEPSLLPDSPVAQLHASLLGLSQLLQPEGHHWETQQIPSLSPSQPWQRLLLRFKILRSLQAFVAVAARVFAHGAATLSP
- T1 sequence 2: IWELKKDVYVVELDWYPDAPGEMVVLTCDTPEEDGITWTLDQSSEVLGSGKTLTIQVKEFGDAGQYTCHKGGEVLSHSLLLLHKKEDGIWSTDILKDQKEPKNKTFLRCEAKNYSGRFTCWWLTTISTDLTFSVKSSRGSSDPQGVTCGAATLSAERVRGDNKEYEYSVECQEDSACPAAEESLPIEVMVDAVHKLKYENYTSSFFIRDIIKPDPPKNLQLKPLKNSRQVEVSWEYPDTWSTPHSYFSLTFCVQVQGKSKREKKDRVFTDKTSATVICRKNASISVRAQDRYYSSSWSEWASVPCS
- measurementNotes: cell-based or functional assay
valueType: Inhibition of IL-17 production, IC50 (µg/mL)
Numbers only; they are read as µg/mL.

# binder, unitString, observedValue
data = [
    ("mAb MOR05054 (antibody, IgG1, V domains shown) VH: QVELVESGGGLVQPGGSLRLSCAASGFTFSSFGMSWVRQAPGKGLEWVSITYASVKGRFTISRDNSKNTLYLQMNSLRAEDTAVYYCARYWGTPYLMQFDNWGQGTLVTVSS VL: DIALTQPASVSGSPGQSITISCTGTSSDVGGYNSVSWYQQHPGKAPKLMIYSVSSRPSGVSNRFSGSKSGNTASLTISGLQAEDEADYYCSSYDTNKPLVVFGGGTKLTVL", "µg/mL", 0.00323),
]

Alright, here's another binder for you.
Form field: reported Inhibition of IL-17 production, IC50 of mAb MOR05047 (antibody, IgG1, V domains shown) VH: QVELVESGGGLVQPGGSLRLSCAASGFTFSSFGMSWVRQAPGKGLEWVSNIGTYASVKGRFTISRDNSKNTLYLQMNSLRAEDTAVYYCARYWGTPYLMQFDNWGQGTLVTVSS VL: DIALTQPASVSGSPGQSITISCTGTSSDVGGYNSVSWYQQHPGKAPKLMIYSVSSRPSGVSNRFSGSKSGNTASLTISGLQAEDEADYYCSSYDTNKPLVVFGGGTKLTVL 0.0234
